assay: Mouse pharmacokinetics (plasma, LC-MS/MS); format: in vivo, C57BL/6J mice; conditions: male, C57BL/6J, ip, single intraperitoneal injection of 40 mg/kg, read-out: area under the curve extrapolated to infinity (AUCINF)
measurementKind: AUC(0-inf) (µM·h)
Your answer should be a plain number; it is taken to be in µM·h.

So for Brc1ccc2c(-c3csc(-c4c[nH]c5c(Br)cccc45)n3)c[nH]c2c1 [Compound 32-134D] , the logged AUC(0-inf) turned out to be 96.7

* * *

assay: Mouse pharmacokinetics (plasma, LC-MS/MS); assay type: in vivo, C57BL/6J mice; settings: male, C57BL/6J, ip, single intraperitoneal injection of 40 mg/kg, read-out: apparent clearance (Cl/F)
measurementKind: CL/F
Remember to follow the number with its unit.

So for Brc1ccc2c(-c3csc(-c4c[nH]c5c(Br)cccc45)n3)c[nH]c2c1 [Compound 32-134D] , the logged CL/F turned out to be 14.5 mL/min/kg

* * *

test: Mouse pharmacokinetics (plasma, LC-MS/MS); format: in vivo, C57BL/6J mice; settings: male, C57BL/6J, ip, single intraperitoneal injection of 40 mg/kg, read-out: terminal half-life (t1/2) (converted)
measurementKind: half-life (h)
Your answer should be a plain number; it is taken to be in h.

So for Brc1ccc2c(-c3csc(-c4c[nH]c5c(Br)cccc45)n3)c[nH]c2c1 [Compound 32-134D] , the logged half-life turned out to be 4.1
